// data source = PubChem BioAssay AID686979

test: qHTS for Inhibitors of human tyrosyl-DNA phosphodiesterase 1 (TDP1): qHTS in cells in presence of CPT; settings: chicken DT40 Tdp1-/-;hTDP1 cells + 20 nM CPT, ATP luminescence, 48 h; series mostly up to 46.2 µM; note: nearly all actives have a fitted effect of over 55% in size
In all, about 420,000 compounds went through this assay and about 50,000 (12%) were called active. About 26% were inconclusive and are not listed. Calls come from the whole dose curve; as a rule, active = well fitted inhibition curve with a large enough effect; inconclusive = small, poorly fitted or top-dose-only effect; inactive = flat fitted curve, though single readings scatter. Many of the other results were omitted from the sample, so actives are more common in it than they were.
Please answer using one outcome listed in Y (active), N (inactive)

Solved entries (count: 4):
O=C(C1CCCO1)N1CCN(C(=O)C23CC4CC(CC(C4)C2)C3)CC1 (stereo unspecified)
N
O=c1cc(-c2ccccc2)nc(N2CCCCC2)[nH]1
N
CCCNC(=S)NC1CC2CCCC(C1)N2CC(C)C (stereo unspecified)
N
CCCN1C2CCCC1CC(NC(=O)c1cccc(OC)c1)C2 (stereo unspecified)
N

Can you look up the reported call for `CCOC(=O)/C(=C\c1ccc([N+](=O)[O-])cc1)C(=O)c1cc(C(C)=O)c(Nc2ccccc2)s1` for me? Y

Continue with CCCN1C2CCCC1CC(NC(=O)NC13CC4CC(CC(C4)C1)C3)C2 (stereo unspecified) Y

---

assay: qHTS for Inhibitors of human tyrosyl-DNA phosphodiesterase 1 (TDP1): qHTS in cells in presence of CPT; details: chicken DT40 Tdp1-/-;hTDP1 cells + 20 nM CPT, ATP luminescence, 48 h; series mostly up to 46.2 µM; note: nearly all actives have a fitted effect of over 55% in size
Among all 420,000 compounds or so, about 50,000 (12%) were called active. About 26% were inconclusive and are not listed. Calls come from the whole dose curve; as a rule, active = well fitted inhibition curve with a large enough effect; inconclusive = small, poorly fitted or top-dose-only effect; inactive = flat fitted curve, though single readings scatter. The sample as a whole holds a higher share of actives than the screen did.
Please answer using one outcome listed in active, inactive

Solved entries (count: 5):
COCCNc1ccc(-c2n[nH]c(=O)c3ccccc23)cc1[N+](=O)[O-]
active
COCCNC(=O)c1ccccc1NS(=O)(=O)c1ccc(C)c([N+](=O)[O-])c1
inactive
c1ccc2c(C[n+]3csc4ccccc43)cccc2c1
active
C/C=C/C=C/C(=O)O
inactive
S=C(Nc1cccc(Br)c1)N1CCn2cccc2C1c1cccnc1 (stereo unspecified)
inactive

Can you look up the reported call for `O=C(CSc1ncccn1)NCCc1ccccc1` for me? inactive

---

Test: qHTS for Inhibitors of human tyrosyl-DNA phosphodiesterase 1 (TDP1): qHTS in cells in presence of CPT; note: nearly all actives have a fitted effect of over 55% in size
Details: chicken DT40 Tdp1-/-;hTDP1 cells + 20 nM CPT, ATP luminescence, 48 h; series mostly up to 46.2 µM
Method: Human tyrosyl-DNA phosphodiesterase 1 (TDP1) is a novel repair gene, and we propose to use it as a new target for anticancer drug development. […] For the primary screen, Tdp1-/-;hTDP1 cells will be exposed to small molecules in the presence or absence of CPT, and their growth kinetics will be evaluated after 48 hours by measuring ATP activity. […] The hit compounds will then be evaluated in the presence or absence of CPT using Tdp1-/- cells. […]
About 50,000 (12%) of roughly 420,000 compounds were called active. Another 26% or so got no clear call; they are omitted. Calls come from the whole dose curve; as a rule, active = well fitted inhibition curve with a large enough effect; inconclusive = small, poorly fitted or top-dose-only effect; inactive = flat fitted curve, though single readings scatter. This excerpt belongs to a sample that is enriched for actives.
Please answer using one outcome listed in Y (active), N (inactive)

Can you look up the reported call for `O=C1CCCN1C(=O)COc1ccc([N+](=O)[O-])cc1` for me? N

---

assay: qHTS for Inhibitors of human tyrosyl-DNA phosphodiesterase 1 (TDP1): qHTS in cells in presence of CPT; conditions: chicken DT40 Tdp1-/-;hTDP1 cells + 20 nM CPT, ATP luminescence, 48 h; series mostly up to 46.2 µM; note: nearly all actives have a fitted effect of over 55% in size
Among all 420,000 compounds or so, about 50,000 (12%) were called active. Roughly 26% stayed inconclusive and do not appear here. The call rests on the fitted dose curve; in most records, active means well fitted inhibition curve with a large enough effect; inconclusive means small, poorly fitted or top-dose-only effect; inactive means flat fitted curve, though single readings scatter. Only a selection was taken, and actives are over-represented in it overall.
Please answer using one outcome listed in 1 (active), -1 (inactive)

Solved entries (count: 5):
CC(=O)Nc1ccc(N2C(=O)C3C4C=CC(CC4)C3C2=O)cc1 (centres undefined)
-1
CN(CCO)C(=O)c1nc[nH]c1C(=O)N(C)Cc1ccccc1
-1
COC(=O)COc1ccc2c(=O)c(Oc3ccccc3Br)coc2c1
-1
CCOC(=O)c1c(NC(=S)NC(=O)/C=C/c2cccs2)sc(C)c1C
1
O=C(CSc1nnnn1C1CCCC1)N1CCCCC1
-1

Can you look up the reported call for `CCOC(=O)c1c(NC(=O)c2cccs2)sc(C)c1C` for me? -1

Continue with `CSC1=N/C(=C\C=C\c2cccs2)C(=O)S1` 1

Continue with `Cc1ccc(CN2CCN(/N=C/c3ccco3)CC2)c(C)c1` -1

Continue with Nc1ccc(C(=O)OCC(=O)NC2CCS(=O)(=O)C2)cc1[N+](=O)[O-] (centres undefined) -1

Continue with `CS(=O)(=O)N(CC(=O)Nc1ccc(F)cc1)C1CCCCC1` -1

---

Assay: qHTS for Inhibitors of human tyrosyl-DNA phosphodiesterase 1 (TDP1): qHTS in cells in presence of CPT; note: nearly all actives have a fitted effect of over 55% in size
Conditions: chicken DT40 Tdp1-/-;hTDP1 cells + 20 nM CPT, ATP luminescence, 48 h; series mostly up to 46.2 µM
Method: Human tyrosyl-DNA phosphodiesterase 1 (TDP1) is a novel repair gene, and we propose to use it as a new target for anticancer drug development. […] For the primary screen, Tdp1-/-;hTDP1 cells will be exposed to small molecules in the presence or absence of CPT, and their growth kinetics will be evaluated after 48 hours by measuring ATP activity. […] The hit compounds will then be evaluated in the presence or absence of CPT using Tdp1-/- cells. […]
The campaign covered roughly 420,000 compounds. About 50,000 (12%) were called active. Inconclusive results (about 26%) are left out. Calls follow the shape of the dose curve; as a rule, active = well fitted inhibition curve with a large enough effect; inconclusive = small, poorly fitted or top-dose-only effect; inactive = flat fitted curve, though single readings scatter. This is one part of a sample in which actives are shown more often than they occur.
Please answer using one outcome listed in active, inactive

Can you look up the reported call for `Cc1nc(N2CCN(c3ccccn3)CC2)c2c(C)c(C(=O)Nc3ccc(F)c(Cl)c3)sc2n1` for me? active

Continue with COC(=O)C1=C(Nc2ccc(OC)cc2)C=C(C)C(C(=O)OC)C1c1ccc(C)cc1 (configuration not stated) active

Continue with `Cc1cc(=O)oc(C)c1C(=O)NCc1ccc(F)cc1` inactive

---

assay: qHTS for Inhibitors of human tyrosyl-DNA phosphodiesterase 1 (TDP1): qHTS in cells in presence of CPT; settings: chicken DT40 Tdp1-/-;hTDP1 cells + 20 nM CPT, ATP luminescence, 48 h; series mostly up to 46.2 µM; note: nearly all actives have a fitted effect of over 55% in size
Screen size: about 420,000 compounds; about 50,000 (12%) were called active. Inconclusive results (about 26%) are left out. Calls follow the shape of the dose curve; as a rule, active = well fitted inhibition curve with a large enough effect; inconclusive = small, poorly fitted or top-dose-only effect; inactive = flat fitted curve, though single readings scatter. The entries come from a sample that favours actives as a whole.
Please answer using one outcome listed in yes (1) (active), no (0) (inactive)

Solved entries (count: 5):
FC(F)(F)c1cc(Nc2nc3ccccc3c3nncn23)ccc1Cl
yes (1)
Cc1cc(Cl)nc(NC(=O)Nc2cccc(Cl)c2)n1
no (0)
CSc1ccc(/C=N/NC(=O)c2cccc(Cl)c2)cc1
no (0)
COc1cccc(NC(=O)C(Sc2nc3ccccc3c(=O)n2CC(C)C)c2ccccc2)c1 (stereo not given)
no (0)
Cc1ccc(C)n1NC(=O)c1ccc([N+](=O)[O-])cc1
no (0)

Can you look up the reported call for `CCCCn1c(N)c(N(CCOC)C(=O)c2cccc(S(=O)(=O)N(C)c3ccccc3)c2)c(=O)[nH]c1=O` for me? no (0)

Continue with `COc1cccc(NC(=O)Cn2c3ccc(F)cc3c3nc4n(c(=O)c32)CCS4)c1` no (0)

Continue with `COc1ccc(CCNC(=O)CN(C)S(=O)(=O)c2ccc3nc(C)sc3c2)cc1OC` no (0)

Continue with `COc1cccc(Nc2nc3ccccc3c3nncn23)c1` yes (1)

Continue with `COc1ccc(S(=O)(=O)N2CCN(C(=O)c3cc(C)oc3C)CC2)cc1` no (0)

---

Assay: qHTS for Inhibitors of human tyrosyl-DNA phosphodiesterase 1 (TDP1): qHTS in cells in presence of CPT; note: nearly all actives have a fitted effect of over 55% in size
Conditions: chicken DT40 Tdp1-/-;hTDP1 cells + 20 nM CPT, ATP luminescence, 48 h; series mostly up to 46.2 µM
Method: Human tyrosyl-DNA phosphodiesterase 1 (TDP1) is a novel repair gene, and we propose to use it as a new target for anticancer drug development. […] For the primary screen, Tdp1-/-;hTDP1 cells will be exposed to small molecules in the presence or absence of CPT, and their growth kinetics will be evaluated after 48 hours by measuring ATP activity. […] The hit compounds will then be evaluated in the presence or absence of CPT using Tdp1-/- cells. […]
About 50,000 (12%) of roughly 420,000 compounds were called active. Not shown: some 26% with an inconclusive outcome. Calls come from the whole dose curve; as a rule, active = well fitted inhibition curve with a large enough effect; inconclusive = small, poorly fitted or top-dose-only effect; inactive = flat fitted curve, though single readings scatter. The sample holds actives, similar compounds and a random draw of the others, so the mix is not that of the screen.
Please answer using one outcome listed in active, inactive

Solved entries (count: 3):
Nc1ncnc2c1ncn2[C@@H]1O[C@H](C(=O)NCC(F)(F)F)[C@@H](O)[C@H]1O
inactive
COc1ccc(N2C(=O)CC(SC(C)C)C2=O)cc1 (stereo not given)
inactive
CC(=O)Nc1ccc(N2C(=O)CC(Sc3nccc(C)n3)C2=O)cc1 (stereo not given)
inactive

Can you look up the reported call for `Cc1cc(C)c(NC(=O)CSc2nc3ccncc3[nH]2)c(C)c1` for me? inactive

Continue with CC(C)C(=O)N1CC(=O)Nc2ccc(F)cc2C1c1ccc(F)cc1 (stereo not given) inactive

Continue with O=C1CC(Sc2ncn[nH]2)C(=O)N1c1ccccc1 (stereo not given) active

Continue with `NS(=O)(=O)c1cc(C(=O)OCC(=O)NNC(=O)c2ccccc2)ccc1Cl` inactive

Continue with `COc1ccc(-c2nc(SCC(=O)N3CCOCC3)n[nH]2)cc1` inactive

Continue with CC1CCCCC1NC(=O)CN1CCC(O)(c2ccc3c(c2)OCO3)CC1 (stereo not given) inactive

Continue with `C[n+]1cccc(C(=O)O)c1` inactive

Continue with `Cc1cc(NC(=O)c2ccc(F)cc2)ccc1NC(=O)c1ccco1` inactive

Continue with `c1ccc(-c2noc(-c3cccs3)n2)nc1` active

Continue with O=C(CCNC(=O)c1ccc(Br)cc1)NCC(c1ccco1)N1CCCCC1 (stereo not given) inactive

Continue with `O=c1c(CCc2ccccc2)nc2cncnc2n1C1CC1` inactive

Continue with `Brc1ccccc1/C=N/Nc1nc2ccccc2o1` inactive
